Biological target: hCA VII (Homo sapiens)
Construct: gene CA7; recombinant
Sequence (P43166 whole entry): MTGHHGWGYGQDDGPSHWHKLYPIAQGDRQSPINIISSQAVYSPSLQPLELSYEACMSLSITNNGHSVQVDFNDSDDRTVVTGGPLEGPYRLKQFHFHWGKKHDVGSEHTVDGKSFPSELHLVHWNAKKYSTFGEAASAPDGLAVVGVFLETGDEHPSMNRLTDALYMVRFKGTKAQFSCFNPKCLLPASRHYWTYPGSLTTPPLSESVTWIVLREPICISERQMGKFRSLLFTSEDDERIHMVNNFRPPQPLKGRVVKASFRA
Assay: stopped-flow CO2 hydration assay
Assay type: biochemical
Items are presented alongside their recorded log10 of Ki.
PARAMETER MEASURED: log10 of Ki (log10 of the value in nM)

>  <COMPOUND>
NS(=O)(=O)c1ccc(CCNc2nc(Cl)nc(NCC(O)CO)n2)cc1 (stereo not drawn)

>  <log10 of Ki>
1.61

$$$$
>  <COMPOUND>
NS(=O)(=O)c1ccc(CNc2nc(NCCCO)nc(Nc3ccc(C(=O)/C=C/c4cccc(O)c4)cc3)n2)cc1

>  <log10 of Ki>
1.41

$$$$
>  <COMPOUND>
NS(=O)(=O)c1ccc(CCNc2nc(Nc3ccc(O)cc3)nc(Nc3ccc(C(=O)/C=C/c4ccc(O)cc4)cc3)n2)cc1

>  <log10 of Ki>
1.95

$$$$
>  <COMPOUND>
NS(=O)(=O)c1ccc(CCNc2nc(NCC(O)CO)nc(Nc3ccc(C(=O)/C=C/c4ccccc4O)cc3)n2)cc1 (stereo not drawn)

>  <log10 of Ki>
1.95

$$$$
>  <COMPOUND>
NS(=O)(=O)c1ccc(CCNc2nc(NCCCO)nc(Nc3ccc(C(=O)/C=C/c4ccccc4O)cc3)n2)cc1

>  <log10 of Ki>
2.45

$$$$
>  <COMPOUND>
NS(=O)(=O)c1ccc(CCNc2nc(Cl)nc(NCCCO)n2)cc1

>  <log10 of Ki>
1.88

$$$$
>  <COMPOUND>
NS(=O)(=O)c1ccc(CCNc2nc(Nc3ccc(O)cc3)nc(Nc3ccc(C(=O)/C=C/c4ccccc4)cc3)n2)cc1

>  <log10 of Ki>
2.91

$$$$
>  <COMPOUND>
NS(=O)(=O)c1ccc(CNc2nc(Cl)nc(NCCCO)n2)cc1

>  <log10 of Ki>
2.52

$$$$
>  <COMPOUND>
NS(=O)(=O)c1ccc(CCNc2nc(Nc3ccc(O)cc3)nc(Nc3ccc(C(=O)/C=C/c4cccc(O)c4)cc3)n2)cc1

>  <log10 of Ki>
1.62

$$$$
